The entries below are paired with their reported glass transition temperature.

{"Compound": "*c1cc(C(c2ccc(OCc3cc(OCCN(C)c4ccc(/C=C/C5=CC(=C(C#N)C#N)CC(C)(C)C5)cc4)cc(OCCN(C)c4ccc(/C=C/C5=CC(=C(C#N)C#N)CC(C)(C)C5)cc4)c3)c(N3C(=O)c4ccc(Oc5ccc6c(c5)C(=O)N(*)C6=O)cc4C3=O)c2)(C(F)(F)F)C(F)(F)F)ccc1OCc1cc(OCCN(C)c2ccc(/C=C/C3=CC(=C(C#N)C#N)CC(C)(C)C3)cc2)cc(OCCN(C)c2ccc(/C=C/C3=CC(=C(C#N)C#N)CC(C)(C)C3)cc2)c1 (repeat unit)", "Unit string": "°C", "glass transition temperature": 178.00}
{"Compound": "*c1ccc(Oc2ccc(N3C(=O)c4ccc(Oc5ccc6c(c5)C(=O)N(c5ncc(*)s5)C6=O)cc4C3=O)cc2)cc1 (repeat unit)", "Unit string": "°C", "glass transition temperature": 300.00}
{"Compound": "*Oc1ccc(C2(c3ccc(OC(*)=O)c(Cl)c3)CC3CCC2C3)cc1Cl (repeat unit)", "Unit string": "°C", "glass transition temperature": 200.00}
{"Compound": "*c1ccc2c(c1)C(=O)N(c1cccc(P(=O)(c3ccc(Oc4ccc(C56CC7CC(CC(C7)C5)C6)cc4)cc3)c3cccc(N4C(=O)c5ccc(C(*)(C(F)(F)F)C(F)(F)F)cc5C4=O)c3)c1)C2=O (repeat unit)", "Unit string": "°C", "glass transition temperature": 298.00}
{"Compound": "*O[Si](C)(C)O[Si](C)(C)O[Si](*)(c1c(F)c(F)c(F)c(F)c1F)c1c(F)c(F)c(F)c(F)c1F (repeat unit)", "Unit string": "°C", "glass transition temperature": -42.00}
{"Compound": "*CC(*)c1ccc(Cl)c(C)c1 (repeat unit)", "Unit string": "°C", "glass transition temperature": 114.00}
{"Compound": "*Oc1ccc(C(=O)c2ccc(C(=O)c3ccc(Oc4ccc(Cc5ccc(*)cc5)cc4)cc3)cc2)cc1 (repeat unit)", "Unit string": "°C", "glass transition temperature": 120.00}
{"Compound": "*OC1C(COC(=O)Nc2ccccc2)OC(*)C(OC(=O)Nc2ccccc2)C1OC(=O)Nc1ccccc1 (repeat unit)", "Unit string": "°C", "glass transition temperature": 217.00}
{"Compound": "*CC(*)(C)C(=O)OCCCCCCCCCCOc1ccc(OC(=O)c2ccc(OCCCC)cc2)cc1 (repeat unit)", "Unit string": "°C", "glass transition temperature": 31.00}
{"Compound": "*CCCCCNC(=O)CC(=O)N* (repeat unit)", "Unit string": "°C", "glass transition temperature": 65.00}
{"Compound": "*CC/C(C)=C(/*)C (repeat unit)", "Unit string": "°C", "glass transition temperature": 4.00}
{"Compound": "*CCOc1ccc(S(=O)(=O)c2ccc(OCCOP(=O)(O*)Oc3ccc([N+](=O)[O-])cc3)cc2)cc1 (repeat unit)", "Unit string": "°C", "glass transition temperature": 56.00}
{"Compound": "*C(=O)c1ccc2c(c1)C(=O)N(c1c(C)cc(Cc3cc(C)c(N4C(=O)c5ccc(*)cc5C4=O)c(C)c3)cc1C)C2=O (repeat unit)", "Unit string": "°C", "glass transition temperature": 320.00}
{"Compound": "*OC(C)C(*)=O (repeat unit) [poly(l - lactic acid)]", "Unit string": "°C", "glass transition temperature": 51.4}
{"Compound": "*Oc1cccc(Oc2cccc(OC(*)=O)c2)c1 (repeat unit)", "Unit string": "°C", "glass transition temperature": 71.00}
{"Compound": "*CC(*)(C)C(=O)OCCCCn1c2ccccc2c2cc(/N=N/c3ccc([N+](=O)[O-])cc3[N+](=O)[O-])ccc21 (repeat unit)", "Unit string": "°C", "glass transition temperature": 132.00}
{"Compound": "*c1ccc(Oc2ccc(N3C(=O)N4C(c5ccc(OC)cc5)N(*)C(=O)N4C3c3ccc(OC)cc3)cc2)cc1 (repeat unit)", "Unit string": "°C", "glass transition temperature": 163.00}
{"Compound": "*Oc1ccc(OC(=O)c2cc(OCCCCOCC3CCCN3c3ccc([N+](=O)[O-])cc3)c(C(*)=O)cc2OCCCCOCC2CCCN2c2ccc([N+](=O)[O-])cc2)cc1 (repeat unit)", "Unit string": "°C", "glass transition temperature": 68.00}
{"Compound": "*CCCCCCCCCCCCOc1ccc(C(C)Cc2ccc(-c3ccc(O*)cc3)cc2)cc1 (repeat unit)", "Unit string": "°C", "glass transition temperature": 40.00}
{"Compound": "*c1ccc(C(=O)c2ccc(-n3c(=O)c4cc5c(=O)n(*)c(=O)c5cc4c3=O)cc2)cc1 (repeat unit)", "Unit string": "°C", "glass transition temperature": 424.00}
{"Compound": "*c1c(C)cc(C)c(N2C(=O)c3ccc(Oc4ccc(Oc5ccc6c(c5)C(=O)N(*)C6=O)cc4)cc3C2=O)c1C (repeat unit)", "Unit string": "°C", "glass transition temperature": 345.00}
{"Compound": "*Oc1ccc2ccc(Oc3ccc(C(=O)Nc4cccc(NC(=O)c5ccc(*)cc5)c4)cc3)cc2c1 (repeat unit)", "Unit string": "°C", "glass transition temperature": 168.00}
{"Compound": "*Oc1ccc(CC(NC(=O)CCc2ccc(OC(=O)COCCOCC(*)=O)cc2)C(=O)OCCCCCCCCCCCC)cc1 (repeat unit)", "Unit string": "°C", "glass transition temperature": 17.00}
{"Compound": "*CC(*)(CCC(C)C(=O)OC)C(=O)OC (repeat unit)", "Unit string": "°C", "glass transition temperature": 34.00}
{"Compound": "*C(F)(F)C(*)(F)OC(F)(F)F (repeat unit)", "Unit string": "°C", "glass transition temperature": -5.00}
{"Compound": "*N=P(N=P(/N=S(/*)Oc1ccc(C(C)(C)C)cc1)(Oc1ccc(-c2ccccc2)cc1)Oc1ccc(-c2ccccc2)cc1)(Oc1ccc(-c2ccccc2)cc1)Oc1ccc(-c2ccccc2)cc1 (repeat unit)", "Unit string": "°C", "glass transition temperature": 54.00}
{"Compound": "*NC(C)CCC(C)(C)CCCNC(=O)c1ccc(C(*)=O)cc1 (repeat unit)", "Unit string": "°C", "glass transition temperature": 150.00}
{"Compound": "*CCOC(=O)CCCCC(=O)OCCOC(=O)c1ccc(C(=O)O*)cc1 (repeat unit)", "Unit string": "°C", "glass transition temperature": 8.00}
{"Compound": "*/C=C/C1CC(*)C2C(=O)N(CCCCCCCC)C(=O)C12 (repeat unit)", "Unit string": "°C", "glass transition temperature": 56.50}
